Assay: in vitro
Settings: human, hela cells, % viability
Quantity Measured: viability at 28.5 h, 10 µM (%)
Write the number in % without appending the unit.

[[record]]
compound = "Cc1ccn(CCNC(=O)C2CCC(=O)N(CCc3ccccn3)C2)n1 (stereo not shown)"
units_symbol = "%"
reported = 93.5

[[record]]
compound = "Cc1nc(C)c(C(=O)N2CCCC(C(=O)c3ccc(F)cc3)C2)s1 (stereo not shown)"
units_symbol = "%"
reported = 104

[[record]]
compound = "NC(=O)COc1ccc(CNC(=O)CN2CCCCCC2)cc1"
units_symbol = "%"
reported = 87.6

[[record]]
compound = "CC(C)(C)c1ccc2c(c1)C(CCCCN1CCCC1)(c1ccccc1)C(=O)O2 (stereo not shown) [CBK017654C]"
units_symbol = "%"
reported = 102

[[record]]
compound = "N#CCNS(=O)(=O)c1ccc(OC(F)(F)F)cc1"
units_symbol = "%"
reported = 111


q: Name the recorded viability at 28.5 h, 10 µM of the item CCN(CC)c1c(C)nc2ccc(C(=O)N(C)CCN(C)C)cn12 in your answer.
a: 90.6

q: Supply reported viability at 28.5 h, 10 µM belonging to this compound: Nc1ncnc2c1nc(SCc1ccccc1)n2Cc1ccccc1
a: 90.9

q: Identify measured viability at 28.5 h, 10 µM corresponding to CC1CCN(CC(C)(C)n2cncc2-c2cnn(C)c2)CC1
a: 107

q: Read off the recorded viability at 28.5 h, 10 µM for Clc1cccc(-c2cncc(N3CCN(Cc4ccccn4)CC3)n2)c1
a: 99.5

q: Tell me measured viability at 28.5 h, 10 µM for O=S(=O)(CC(F)(F)F)Nc1ccc(-c2nnn[nH]2)cc1 please.
a: 107

----------
Assay: in vitro
Conditions: human, hela cells, % viability
Quantity Measured: viability at 28.5 h, 10 µM (%)
Please state the figure in %; there is no need to write the unit.

Field: example entries. Status: answers known.
[[record]]
compound = "O=C(CCCCCN1C(=O)c2ccccc2C1=O)NO"
quantity_measured = "viability at 28.5 h, 10 µM"
units_symbol = "%"
reported = 80.2

[[record]]
compound = "COc1ccc(C(=O)Nc2ccccc2C(=O)N2CCOCC2)cc1Br"
quantity_measured = "viability at 28.5 h, 10 µM"
units_symbol = "%"
reported = 85.4

[[record]]
compound = "O=C(O)c1ccc(CNCCc2c[nH]c3ccccc23)cc1"
quantity_measured = "viability at 28.5 h, 10 µM"
units_symbol = "%"
reported = 87.6

[[record]]
compound = "CCOc1ccc(C(=O)NC2CC3CCC(C2)N3Cc2ccc(OC)cc2)cc1 (centres unmarked)"
quantity_measured = "viability at 28.5 h, 10 µM"
units_symbol = "%"
reported = 109


q: Give the reported value of viability at 28.5 h, 10 µM for this record: Cc1cc(C(=O)N2CCC(n3c(=O)[nH]c4ccccc43)CC2)no1
a: 103

----------
Test: in vitro
Settings: human, hela cells, % viability
Measured viability at 28.5 h, 10 µM values are reported for all entries that follow.
Record the result as a number with its unit.

A selection of reference data follows.
[[record]]
compound = "COc1cncc(-c2cncc(N[C@H](C)c3ccccc3)n2)c1 [CBK065537]"
reported = "98.9%"

[[record]]
compound = "Cc1c(NC(=O)C2CN(S(=O)(=O)c3ccccc3)CCN2S(=O)(=O)c2ccccc2)c(=O)n(-c2ccccc2)n1C (centres unmarked) [CBK264138]"
reported = "98%"

[[record]]
compound = "Cc1ccc(C)n1C1CC(C)(C)NC(C)(C)C1 [CBK019116]"
reported = "91.1%"

[[record]]
compound = "CCNS(=O)(=O)c1ccc2c(c1)N(Cc1nc(-c3ccco3)no1)CC2 [CBK306184]"
reported = "81.1%"


q: Assign viability at 28.5 h, 10 µM to the following record: Cc1cccc(-c2ccc(CC3(C(=O)NC(C)C)CCN(C(=O)C4CC4)CC3)cc2)c1 [CBK285757]
a: 93.3%

----------
Assay: in vitro
Details: human, hela cells, % viability
Quantity Measured: viability at 28.5 h, 10 µM (%)
Value expressed in %; do not type the unit.

Examples from the recorded data:
[[record]]
sample_smiles = "N#Cc1c(NC(=O)CN2CCN(Cc3ccccc3)CC2)sc2c1CCCC2"
reported = 99.6

[[record]]
sample_smiles = "O=C(N[C@H]1CCN2C(=O)N(c3cccc(C(F)(F)F)c3)C(=O)[C@@H]2C1)c1ccncc1"
reported = 98.7

[[record]]
sample_smiles = "CCCc1c(C)nc2ccccc2c1SCC(=O)O"
reported = 93.7

[[record]]
sample_smiles = "CC(C)(C)c1ccc(S(=O)(=O)N2CCCC[C@H]2CCOC(=O)/C=C\\C(=O)O)cc1"
reported = 89.6

[[record]]
sample_smiles = "Cc1nc(O)cc(C2CCN(C(=O)c3csc4c3CCCC4)CC2)n1"
reported = 104


q: Retrieve viability at 28.5 h, 10 µM measured for O=C(O)c1ccc(NC(=O)c2nccnc2C(=O)O)cc1 and print it.
a: 97.7

q: Write down viability at 28.5 h, 10 µM measured for item Cn1c(=O)n(C)c2cc(CN3CCN(C4CCCC4)C(=O)C3)ccc21
a: 97.1

q: Give recorded viability at 28.5 h, 10 µM. O=S1(=O)N=C(c2c(O)nc3ccccc3c2O)Nc2ccccc21
a: 90.7

q: Annotate the compound O=C(CSc1nnc(-c2ccco2)o1)c1ccc2c(c1)OCCO2 with its measured viability at 28.5 h, 10 µM.
a: 105

----------
Assay: in vitro
Details: human, hela cells, % viability
Strictly below 90% in viability at 28.5 h, 10 µM: y. Otherwise: n.

Completed entries (count: 3):
[[record]]
compound = "CCOC(=O)NC(=O)c1ccccc1 [CBK012359]"
class_name = "n"

[[record]]
compound = "Cc1ccc2c(c1)C(=O)NCC1(CCN(C(=O)C3CC3)CC1)O2 [CBK284835]"
class_name = "n"

[[record]]
compound = "CN(C)S(=O)(=O)c1ccc(Cl)c(C(=O)Nc2ccc(C(=O)O)cc2)c1 [CBK265728]"
class_name = "n"


q: Consider the compound CN(C)c1cccc(-c2ccc(Nc3cccc(NC(=O)c4ccncc4)c3)nc2)c1 [CBK037721] . Is its viability at 28.5 h, 10 µM strictly less than 90%?
a: y

q: In the record for CC(C)[C@H](CO)NC(=O)c1cnc(-c2ccc(Cl)cc2)c(-c2ccco2)c1 [CBK036658] , is viability at 28.5 h, 10 µM less than 90%?
a: n

q: Hello, I'm reviewing records and need to know if viability at 28.5 h, 10 µM of CCN(Cc1ccncc1)C(=O)NCc1ccc2c(c1)OCO2 [CBK145056] is below 90%. Could you check?
a: n

----------
Experiment: in vitro
Conditions: human, hela cells, % viability
Quantity Measured: viability at 28.5 h, 10 µM (%)
Just the number please, in %, no unit attached.

Consider the worked cases shown below.
[[record]]
molecule = "O=C1Nc2c(cnn2-c2ccc(Cl)cc2)C2=NCCN12 [CBK284341]"
units_symbol = "%"
reported = 93.1

[[record]]
molecule = "COc1ccc2cc(C(=O)N(CCO)Cc3ccc(C)s3)n(C)c2c1 [CBK306831]"
units_symbol = "%"
reported = 116

[[record]]
molecule = "CC(C)c1nc(NCc2nnc(C(C)C)n2C)nc(N(C)C)n1 [CBK306402]"
units_symbol = "%"
reported = 104

[[record]]
molecule = "C[C@H]1CN2C[C@H](O)CC2CN1Cc1ccc(Br)s1 (some centres unmarked) [CBK285439]"
units_symbol = "%"
reported = 96.1

[[record]]
molecule = "O=C1CC(c2ccc3c(c2)OCO3)c2ccc3ccccc3c2N1 (centres unmarked) [CBK087469]"
units_symbol = "%"
reported = 95.8

[[record]]
molecule = "Cc1ccc(C2=CCN(S(=O)(=O)c3ccc(F)cc3)CC2)o1 [CBK283571]"
units_symbol = "%"
reported = 93

[[record]]
molecule = "COc1ccc(S(=O)(=O)n2ccc3cc(N4CCN(C)CC4)ccc32)cc1OC [CBK000286C]"
units_symbol = "%"
reported = 79.6

[[record]]
molecule = "COCCOC1CN(Cc2cn(-c3ccc(Br)cc3)nc2C(C)C)C1 [CBK304852]"
units_symbol = "%"
reported = 87.7


q: Provide only the value of recorded viability at 28.5 h, 10 µM for Cc1ccc(-n2c(SCC(=O)Nc3ccc(C)c([N+](=O)[O-])c3)nnc2-c2ccccc2O)c(C)c1 [CBK268769]
a: 96.6

q: Supply viability at 28.5 h, 10 µM value. Item: CCN1CCN(c2ncnc3c2cnn3-c2cccc(C)c2)CC1 [CBK265814]
a: 93.8

q: Identify measured viability at 28.5 h, 10 µM corresponding to COc1cccc(CCN2N=C(C)CC2=O)c1OC [CBK067766]
a: 100

q: Return viability at 28.5 h, 10 µM (reported value) for this molecule: CN(C)C(=O)CN1N=C(C(C)(C)C)Cn2c(cc3sccc32)C1=O [CBK284116]
a: 89.5

q: Return the recorded viability at 28.5 h, 10 µM value; entry: O=C(CC(=O)Nc1c(Cl)cccc1C(F)(F)F)Nc1c(Cl)cccc1C(F)(F)F [CBK263148]
a: 103

q: Tell me its viability at 28.5 h, 10 µM given CCn1c(C(CC(C)C)NC(=O)C2CC2)nc2cccnc21 (centres unmarked) [CBK283736] as the entry.
a: 103

q: Supply viability at 28.5 h, 10 µM value. Item: C=C(C)Cn1c(SCCC(=O)OC)nc2sc3c(c2c1=O)CC(C)(C)OC3 [CBK026634]
a: 59.9

q: Please list viability at 28.5 h, 10 µM recorded for the molecule C=CCN1C(=O)C2(CC(=O)N(CCCN(C)S(C)(=O)=O)C2=O)c2cc(F)ccc21 (centres unmarked) [CBK075319]
a: 100

q: # return recorded viability at 28.5 h, 10 µM for entry CCCCN1CC(=O)C(c2nc3ccccc3[nH]2)=C1N [CBK287777]
a: 93.7

q: Entry O=C(Nc1cccc(-c2cccc(F)c2)c1)c1ccccc1Cn1cncn1 [CBK285735] needs its viability at 28.5 h, 10 µM filled in; supply it.
a: 87.4

q: Dear colleague, please send me the reported viability at 28.5 h, 10 µM for CN1CCN(C(=O)CNS(=O)(=O)c2cc(F)c(Br)cc2F)CC1 [CBK034481] when you can.
a: 99.5

q: Name the recorded viability at 28.5 h, 10 µM of the molecule listed here: CCOc1ccccc1C(=O)Nc1ccc(O)cc1 [CBK099037]
a: 91.8
